The reported measurements were obtained from ChEMBL document CHEMBL1124366.

# Tested on: Enterococcus faecalis
# assay-summary: In vitro minimum inhibitory concentration against Streptococcus faecalis ATCC 7080
# Format: functional
Documented MIC across a set of compounds
Give a bare numeral; the unit µg/mL is implied.

>  <item-smiles>
CN(C)CCNC(=O)[C@H]1NC(=O)[C@H]2NC(=O)[C@H](NC(=O)[C@@H]3NC(=O)[C@H]4NC(=O)[C@@H](Cc5ccc(c(Cl)c5)Oc5cc3cc(c5O)Oc3ccc(cc3Cl)[C@H]2O)NC(=O)[C@H](N)c2ccc(O)c(c2)Oc2cc(O)cc4c2)c2ccc(O)c(c2)-c2c(O)cc(O)cc21

>  <test-target>
Enterococcus faecalis

>  <display-unit>
µg/mL

>  <MIC>
0.12

$$$$
>  <item-smiles>
N[C@H]1C(=O)N[C@@H]2Cc3ccc(c(Cl)c3)Oc3cc4cc(c3O)Oc3ccc(cc3Cl)[C@@H](O)[C@@H]3NC(=O)[C@H](NC(=O)[C@@H]4NC(=O)[C@@H](NC2=O)c2cc(O)cc(c2)Oc2cc1ccc2O)c1ccc(O)c(c1)-c1c(O)cc(O)cc1[C@@H](C(=O)NCCCCCC(=O)N[C@@H]1[C@@H](O)[C@@H](O)[C@@H](CO)O[C@H]1O)NC3=O

>  <test-target>
Enterococcus faecalis

>  <display-unit>
µg/mL

>  <MIC>
0.25

$$$$

Field: next compound
Ask: # lookup: MIC of CNCCCNC(=O)[C@H]1NC(=O)[C@H]2NC(=O)[C@H](NC(=O)[C@@H]3NC(=O)[C@H]4NC(=O)[C@@H](Cc5ccc(c(Cl)c5)Oc5cc3cc(c5O)Oc3ccc(cc3Cl)[C@H]2O)NC(=O)[C@H](N)c2ccc(O)c(c2)Oc2cc(O)cc4c2)c2ccc(O)c(c2)-c2c(O)cc(O)cc21
Reply: 0.12

* * *

Documented MIC across a set of compounds
# Test system: Streptococcus pneumoniae
# assay-summary: In vitro minimum inhibitory concentration against Streptococcus pneumoniae UC41
# Format: functional
Give a bare numeral; the unit µg/mL is implied.

>  <item-smiles>
CNCCCN(C)C(=O)[C@H]1NC(=O)[C@H]2NC(=O)[C@H](NC(=O)[C@@H]3NC(=O)[C@H]4NC(=O)[C@@H](Cc5ccc(c(Cl)c5)Oc5cc3cc(c5O)Oc3ccc(cc3Cl)[C@H]2O)NC(=O)[C@H](N)c2ccc(O)c(c2)Oc2cc(O)cc4c2)c2ccc(O)c(c2)-c2c(O)cc(O)cc21

>  <MIC, µg/mL>
0.12

$$$$
>  <item-smiles>
N[C@H]1C(=O)N[C@@H]2Cc3ccc(c(Cl)c3)Oc3cc4cc(c3O)Oc3ccc(cc3Cl)[C@@H](O)[C@@H]3NC(=O)[C@H](NC(=O)[C@@H]4NC(=O)[C@@H](NC2=O)c2cc(O)cc(c2)Oc2cc1ccc2O)c1ccc(O)c(c1)-c1c(O)cc(O)cc1[C@@H](C(=O)O)NC3=O

>  <MIC, µg/mL>
0.12

$$$$

Ask: # lookup: MIC of CC(=O)N[C@@H]1[C@H](O[C@@H]2c3ccc(c(Cl)c3)Oc3cc4cc(c3O[C@@H]3O[C@@H](CO)[C@@H](O)[C@H](O)[C@@H]3NC(=O)CCCCCCC(C)C)Oc3ccc(cc3Cl)C[C@H]3NC(=O)[C@H](N)c5ccc(O)c(c5)Oc5cc(O)cc(c5)[C@H](NC3=O)C(=O)N[C@H]4C(=O)N[C@H]3C(=O)N[C@@H]2C(=O)N[C@H](C(=O)NCCCN)c2cc(O)cc(O[C@H]4O[C@H](CO)[C@@H](O)[C@@H](O)[C@@H]4O)c2-c2cc3ccc2O)O[C@@H](CO)[C@@H](O)[C@@H]1O
Reply: 0.12

* * *

# Tested on: Enterococcus faecalis
# assay-summary: In vitro minimum inhibitory concentration against Streptococcus faecalis ATCC 7080
# Assay type: functional
readout-name: MIC (µg/mL)
Give a bare numeral; the unit µg/mL is implied.

Ask: # lookup: MIC of CC(=O)N[C@@H]1[C@H](O[C@@H]2c3ccc(c(Cl)c3)Oc3cc4cc(c3O[C@@H]3O[C@@H](CO)[C@@H](O)[C@H](O)[C@@H]3NC(=O)CCCCCCC(C)C)Oc3ccc(cc3Cl)C[C@H]3NC(=O)[C@H](N)c5ccc(O)c(c5)Oc5cc(O)cc(c5)[C@H](NC3=O)C(=O)N[C@H]4C(=O)N[C@H]3C(=O)N[C@@H]2C(=O)N[C@H](C(=O)NC2CN4CCC2CC4)c2cc(O)cc(O[C@H]4O[C@H](CO)[C@@H](O)[C@@H](O)[C@@H]4O)c2-c2cc3ccc2O)O[C@@H](CO)[C@@H](O)[C@@H]1O (stereo not given in full)
Reply: 0.12

Ask: # lookup: MIC of CC(=O)N[C@@H]1[C@H](O[C@@H]2c3ccc(c(Cl)c3)Oc3cc4cc(c3O)Oc3ccc(cc3Cl)C[C@H]3NC(=O)[C@H](N)c5ccc(O)c(c5)Oc5cc(O)cc(c5)[C@H](NC3=O)C(=O)N[C@H]4C(=O)N[C@H]3C(=O)N[C@@H]2C(=O)N[C@H](C(=O)O)c2cc(O)cc(O[C@H]4O[C@H](CO)[C@@H](O)[C@@H](O)[C@@H]4O)c2-c2cc3ccc2O)O[C@@H](CO)[C@@H](O)[C@@H]1O
Reply: 0.5

Ask: # lookup: MIC of CC(=O)N[C@@H]1[C@H](O[C@@H]2c3ccc(c(Cl)c3)Oc3cc4cc(c3O[C@@H]3O[C@@H](CO)[C@@H](O)[C@H](O)[C@@H]3NC(=O)CCCCCCC(C)C)Oc3ccc(cc3Cl)C[C@H]3NC(=O)[C@H](N)c5ccc(O)c(c5)Oc5cc(O)cc(c5)[C@H](NC3=O)C(=O)N[C@H]4C(=O)N[C@H]3C(=O)N[C@@H]2C(=O)N[C@H](C(=O)NCCCN2CCOCC2)c2cc(O)cc(O[C@H]4O[C@H](CO)[C@@H](O)[C@@H](O)[C@@H]4O)c2-c2cc3ccc2O)O[C@@H](CO)[C@@H](O)[C@@H]1O
Reply: 0.12

Ask: # lookup: MIC of CN(C)CCCCCNC(=O)[C@H]1NC(=O)[C@H]2NC(=O)[C@H](NC(=O)[C@@H]3NC(=O)[C@H]4NC(=O)[C@@H](Cc5ccc(c(Cl)c5)Oc5cc3cc(c5O)Oc3ccc(cc3Cl)[C@H]2O)NC(=O)[C@H](N)c2ccc(O)c(c2)Oc2cc(O)cc4c2)c2ccc(O)c(c2)-c2c(O)cc(O)cc21
Reply: 0.12

Ask: # lookup: MIC of CCCCC/C=C/CCC(=O)N[C@@H]1[C@H](Oc2c3cc4cc2Oc2ccc(cc2Cl)[C@@H](O[C@@H]2O[C@@H](CO)[C@@H](O)[C@H](O)[C@@H]2NC(C)=O)[C@@H]2NC(=O)[C@H](NC(=O)[C@@H]4NC(=O)[C@H]4NC(=O)[C@@H](Cc5ccc(c(Cl)c5)O3)NC(=O)[C@H](N)c3ccc(O)c(c3)Oc3cc(O)cc4c3)c3ccc(O)c(c3)-c3c(O[C@H]4O[C@H](CO)[C@@H](O)[C@@H](O)[C@@H]4O)cc(O)cc3[C@@H](C(=O)NC3CCNCC3)NC2=O)O[C@@H](CO)[C@@H](O)[C@@H]1O
Reply: 0.12

* * *

# System: Streptococcus pyogenes
# assay-summary: Subcutaneously administration into mice infected with Streptococcus pyogenes C 203
# Assay type: functional
# experimental-context: sc
readout-name: ED50 (mg/kg)
Give a bare numeral; the unit mg/kg is implied.

>  <item-smiles>
CCNCCNC(=O)[C@H]1NC(=O)[C@H]2NC(=O)[C@H](NC(=O)[C@@H]3NC(=O)[C@H]4NC(=O)[C@@H](Cc5ccc(c(Cl)c5)Oc5cc3cc(c5O[C@@H]3O[C@@H](CO)[C@@H](O)[C@H](O)[C@@H]3NC(=O)CCCCCCC(C)C)Oc3ccc(cc3Cl)[C@H]2O[C@@H]2O[C@@H](CO)[C@@H](O)[C@H](O)[C@@H]2NC(C)=O)NC(=O)[C@H](N)c2ccc(O)c(c2)Oc2cc(O)cc4c2)c2ccc(O)c(c2)-c2c(O[C@H]3O[C@H](CO)[C@@H](O)[C@@H](O)[C@@H]3O)cc(O)cc21

>  <display-unit>
mg/kg

>  <measured-value>
0.18

$$$$

Field: next molecule
Ask: # lookup: ED50 of CC(=O)N[C@@H]1[C@H](O[C@@H]2c3ccc(c(Cl)c3)Oc3cc4cc(c3O[C@@H]3O[C@@H](CO)[C@@H](O)[C@H](O)[C@@H]3NC(=O)CCCCCCC(C)C)Oc3ccc(cc3Cl)C[C@H]3NC(=O)[C@H](N)c5ccc(O)c(c5)Oc5cc(O)cc(c5)[C@H](NC3=O)C(=O)N[C@H]4C(=O)N[C@H]3C(=O)N[C@@H]2C(=O)N[C@H](C(=O)NCCCCN)c2cc(O)cc(O[C@H]4O[C@H](CO)[C@@H](O)[C@@H](O)[C@@H]4O)c2-c2cc3ccc2O)O[C@@H](CO)[C@@H](O)[C@@H]1O
Reply: 0.07
